Hello, the source for this data is patent US8557805B2, in case you need it.

- TEST_SYSTEM: human liver GK (GST-hLGK1) (Homo sapiens, UniProt P35557)
- Construct: with a BamHI site added to immediately before the initiation codon
- Sequence (P35557 1-464 isoform P35557-3): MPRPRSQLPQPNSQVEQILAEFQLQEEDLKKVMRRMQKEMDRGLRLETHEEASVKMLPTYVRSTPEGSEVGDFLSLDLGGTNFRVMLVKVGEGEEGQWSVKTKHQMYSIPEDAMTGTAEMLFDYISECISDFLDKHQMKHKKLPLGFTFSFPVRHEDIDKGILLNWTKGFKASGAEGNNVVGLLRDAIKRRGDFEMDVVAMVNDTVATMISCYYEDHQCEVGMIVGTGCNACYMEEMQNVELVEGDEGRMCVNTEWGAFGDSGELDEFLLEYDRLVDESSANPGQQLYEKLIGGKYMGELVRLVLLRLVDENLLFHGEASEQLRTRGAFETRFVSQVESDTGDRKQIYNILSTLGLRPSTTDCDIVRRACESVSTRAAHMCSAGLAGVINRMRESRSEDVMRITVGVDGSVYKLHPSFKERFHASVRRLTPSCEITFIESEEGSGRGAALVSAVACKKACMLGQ
- ASSAY_TEXT: Determination of GK activity value (Mant-ATP to Mant-ADP conversion, capillary electrophoresis)
- PROTOCOL_CONDITIONS: reaction started with 25 mM D-glucose solution, 37° C., 60 min, concentration at midpoint between maximum activity value and control group activity value
Please provide measured log10(EC50) for the entries that follow.
Note: values are log10 of EC50 expressed in nM.

Solved entries (count: 6):
CCc1cc(Oc2ccc(S(C)(=O)=O)nc2)cc2cc(C3=NCC(CC(=O)N4CC[S+]([O-])CC4)S3)[nH]c12 (stereo not shown): 1.26
CS(=O)(=O)c1ccc(Oc2ccc3[nH]c(C4=NCC(CC(=O)NCC(F)(F)F)S4)cc3c2)cn1 (stereo not shown): 1.86
CCNC(=O)CC1CN=C(c2cc3cc(Oc4ccc(S(C)(=O)=O)nc4)ccc3[nH]2)S1 (stereo not shown): 2.08
COCc1ccc(Oc2cc(OC3CCOCC3)c3[nH]c(C4=NCC(CCO)S4)cc3c2)cn1 (stereo not shown): 1.15
CN(C)C(=O)CC1CN=C(c2cc3cc(Oc4ccc(S(C)(=O)=O)nc4)ccc3[nH]2)S1 (stereo not shown) [Example 55]: 2.26
CCc1cc(Oc2ccc(S(C)(=O)=O)nc2)cc2cc(C3=NCC(CC(N)=O)S3)[nH]c12 (stereo not shown): 1.20

Please find the next molecule below.
Entry Cc1cc(Oc2ccc(S(C)(=O)=O)nc2)cc2cc(C3=NCC(CC(=O)N4CCOCC4)S3)[nH]c12 (stereo not shown) ; log10(EC50) = 1.73

###

- TEST_SYSTEM: human liver GK (GST-hLGK1) (Homo sapiens, UniProt P35557)
- Construct: with a BamHI site added to immediately before the initiation codon
- Sequence (P35557 1-464 isoform P35557-3): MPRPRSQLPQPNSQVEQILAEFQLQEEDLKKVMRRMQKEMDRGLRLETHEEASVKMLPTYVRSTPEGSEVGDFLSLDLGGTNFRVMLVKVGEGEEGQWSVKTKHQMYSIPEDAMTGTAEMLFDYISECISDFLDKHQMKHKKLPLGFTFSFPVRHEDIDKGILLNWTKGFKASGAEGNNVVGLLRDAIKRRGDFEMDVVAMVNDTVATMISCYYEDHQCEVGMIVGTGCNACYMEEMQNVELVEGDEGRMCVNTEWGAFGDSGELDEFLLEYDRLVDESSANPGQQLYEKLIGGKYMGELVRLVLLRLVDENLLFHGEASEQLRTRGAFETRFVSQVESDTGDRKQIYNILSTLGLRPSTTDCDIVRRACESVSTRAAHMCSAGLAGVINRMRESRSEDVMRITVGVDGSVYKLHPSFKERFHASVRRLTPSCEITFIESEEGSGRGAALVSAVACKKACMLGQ
- ASSAY_TEXT: Determination of GK activity value (Mant-ATP to Mant-ADP conversion, capillary electrophoresis)
- PROTOCOL_CONDITIONS: reaction started with 25 mM D-glucose solution, 37° C., 60 min, concentration at midpoint between maximum activity value and control group activity value
- Method: Plasmid DNA to be used for the expression of a protein (GST-hLGK1) containing GST (Glutathione S-transferase) added to the amino terminal of human liver GK in Escherichia coli was prepared as follows. First, PCR was performed using human liver cDNA (Marathon Ready cDNA, Clontech Laboratories, Inc.) as a template and two kinds of synthetic DNAs (5′-[…]-3′ (SEQ ID NO: 1) and 5′-[…]-3′ (SEQ ID NO: 2)), and the obtained DNA fragment was closed using a TOPO TA Cloning Kit (Invitrogen Corporation). […]
I'd appreciate it if you could supply pEC50 values for the items below.
Give bare numbers, as −log10 of the molar value.

Answered cases to consult:
CN(C)C(=O)CC1CN=C(c2cc3cc(Oc4ccc(S(C)(=O)=O)nc4)ccc3[nH]2)S1 (single isomer, unassigned) [Example 65]: 7.18
Cc1cc(Oc2ccc(S(C)(=O)=O)nc2)cc2cc(C3=NCC(CC(=O)N4CC[S+]([O-])CC4)S3)[nH]c12 (centres unmarked): 7.32
CNC(=O)CC1CN=C(c2cc3cc(Oc4ccc(S(C)(=O)=O)nc4)cc(OC4CCOCC4)c3[nH]2)S1 (single isomer, unassigned) [Example 35]: 7.51
CS(=O)(=O)c1ccc(Oc2cc(OC3CCOCC3)c3[nH]c(C4=NCC(CC(=O)NC5CC5)S4)cc3c2)cn1 (centres unmarked): 7.80
COCc1ccc(Oc2cc(OC3CCOCC3)c3[nH]c(C4=NCC(CC(C)(C)O)S4)cc3c2)cn1 (centres unmarked): 7.74

Working through the 3 compounds below one at a time, give pEC50 for each.
1. CNC(=O)CC1CN=C(c2cc3cc(Oc4ccc(S(C)(=O)=O)nc4)ccc3[nH]2)S1 (centres unmarked) [Example 53]
2. CS(=O)(=O)c1ccc(Oc2cc(OC3CCOCC3)c3[nH]c(C4=NCC(CC(N)=O)S4)cc3c2)cn1 (single isomer, unassigned) [Example 33]
3. CCNC(=O)CC1CN=C(c2cc3cc(Oc4ccc(S(C)(=O)=O)nc4)cc(OC4CCOCC4)c3[nH]2)S1 (centres unmarked)

### Response
[6.89, 7.59, 7.68]
